Molecular target: T1, monkey macaca fascicularis PRLR construct with an HA tag on HEK293/mfPRLR cells (macaca fascicularis, UniProt A0A2K5WXK1 25-619)
T1 construct: stably transfected into HEK293
T1 sequence: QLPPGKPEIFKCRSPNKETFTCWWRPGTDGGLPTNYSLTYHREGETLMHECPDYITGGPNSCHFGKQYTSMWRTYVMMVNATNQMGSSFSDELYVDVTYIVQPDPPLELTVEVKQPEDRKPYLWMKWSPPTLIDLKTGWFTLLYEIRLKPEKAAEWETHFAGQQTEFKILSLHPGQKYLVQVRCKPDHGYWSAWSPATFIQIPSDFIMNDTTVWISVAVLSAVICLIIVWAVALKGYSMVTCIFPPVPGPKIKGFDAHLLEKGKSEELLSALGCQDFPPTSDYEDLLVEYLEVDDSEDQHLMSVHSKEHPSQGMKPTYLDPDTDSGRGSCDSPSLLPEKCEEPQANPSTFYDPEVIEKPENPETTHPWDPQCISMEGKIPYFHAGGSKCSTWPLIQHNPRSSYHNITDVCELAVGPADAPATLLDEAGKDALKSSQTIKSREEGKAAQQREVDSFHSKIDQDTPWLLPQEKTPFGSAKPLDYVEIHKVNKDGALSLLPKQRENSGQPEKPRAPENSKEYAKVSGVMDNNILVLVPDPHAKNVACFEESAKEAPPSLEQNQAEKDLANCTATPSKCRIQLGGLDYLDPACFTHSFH
Assay: FACS on HEK293/mfPRLR cells
property-measured: FACS Cell Binding (Fold Above Background) (fold)
I only need the number, in fold, no unit after it.

binder	value
H1H6959N2 (antibody, human IgG1, V domains shown, also called H2M6959N2) VH: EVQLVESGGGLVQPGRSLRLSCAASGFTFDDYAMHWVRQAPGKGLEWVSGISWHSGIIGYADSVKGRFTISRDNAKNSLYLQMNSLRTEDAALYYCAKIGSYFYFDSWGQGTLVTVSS VL: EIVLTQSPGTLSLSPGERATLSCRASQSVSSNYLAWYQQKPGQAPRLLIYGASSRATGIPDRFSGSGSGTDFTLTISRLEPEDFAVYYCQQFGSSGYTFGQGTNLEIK	11
H1H6781P (antibody, human IgG1, V domains shown, human IgG1 Fc (H1H)) VH: EVQLVESGGDLVQPGESLRLSCTASGFTFNSYEMNWVRQAPGKGLEWVSYISSSGGTKYYVDSVKGRFTISRDNAKKSLYLQMNSLRADDTALYYCARLNGVDVFDIWGQGTMVTVSS VL: DIQMTQSPSSLSASVGDRVTITCRASQDIFNYLAWFQQKPGKVPELLISAASTLQSGVPSRFSGSGSGTYFTLTISSLQPEDIATYYCQRYNSAPLTFGGGTKVEIK	26

API: the following record is the query input.
The reported FACS Cell Binding (Fold Above Background) of the binder H1H6795P (antibody, human IgG1, V domains shown, human IgG1 Fc (H1H)) VH: QVQLVQSGAEVKKPGASVKVSCKASGYTFGTSGITWVRQAPGQGLEWMGWSSAYNGKTDYAQKFQDRVTMTTDTSTTTGYMEMRSLTSDDTAVYYCTTVVRRPFDFWGQGTLVTVSS VL: DIQMTQSPSSLSASVGDRVTITCRASQDINNFLAWFQQKPGKAPKSLIYAASSLQSGVPSKFSGGGSGTDFALTISSLQPEDFATYYCQQYSSYPITFGQGTRLEIK was 22
